Test: APR_HepG2_CellLoss_72hr: Apredica 72-hour HepG2 Assay for Cell Loss (AID 2282915)
Conditions: high-content imaging
Experimental: APR_HepG2_72hr is a cell-based, multiplexed-readout assay that uses HepG2, a human liver cell line, with measurements taken at 72 hours after chemical dosing in a 384-well plate.APR_HepG2_CellLoss_72hr is one of 10 assay component(s) measured or calculated from the APR_HepG2_72hr assay. […] This assay endpoint, APR_HepG2_CellLoss_72hr, was analyzed with bidirectional fitting relative to DMSO as the negative control and baseline of activity. […]
The source made the active and inactive calls. The calls were made as follows: active = hit-call score of the fitted dose curve at least 0.9, where 1 is the maximum; inactive = score below 0.9.
Your reply should match one of these outcome classes. active, inactive

| Compound | Group |
| --- | --- |
| C#C[C@]1(O)CC[C@H]2[C@@H]3CCC4=CC(=O)CC[C@@H]4[C@H]3CC[C@@]21C | inactive |
| CCCCCCCCOC(=O)CCCCCCCCC(=O)OCCCCCCCC | inactive |
| OCCC(F)(F)C(F)(F)C(F)(F)C(F)(F)C(F)(F)C(F)(F)F | inactive |
| NC(=O)N1C(=O)C(C(=O)c2cc(Cl)cs2)c2cc(F)c(Cl)cc21 (stereo not given) | active |
| OCCC(F)(F)C(F)(F)C(F)(F)C(F)(F)C(F)(F)C(F)(F)C(F)(F)C(F)(F)F | active |
| O=C(O)Cc1cc(I)c(Oc2cc(I)c(O)c(I)c2)c(I)c1 | inactive |
| O=C(O)c1ccccc1C(c1ccc(O)cc1)c1ccc(O)cc1 | active |
| CCc1ccc(CCOc2ccc(CC3SC(=O)NC3=O)cc2)nc1 (stereo not given) | active |

Request: Which outcome did this test record for the compound CCCCOCCO ?
Result: inactive

Request: State the result this test recorded for CC(C)CCCCCCOC(=O)CCCCC(=O)OCCCCCCC(C)C .
Result: inactive

* * *

Read-out: Human Leukocyte Antigen - DR isotype (HLADR), HLA-DRA (gene 3122)
Assay: BSK_3C_HLADR: BioMAP Diversity Plus: 3C Assay for Human Leukocyte Antigen - DR isotype (HLADR) Biomarker Activity (AID 2283019)
Conditions: primary human endothelial cells (HUVEC); actives raise or lower the signal
The source made the active and inactive calls. Rule for the calls: active = hit-call score of the fitted dose curve at least 0.9, where 1 is the maximum; inactive = score below 0.9.
Select the correct class. Options are active, inactive and nothing else.

# count of solved cases: 4
| Molecule | Group |
| --- | --- |
| CC(=O)CC(C)(C)O | inactive |
| CCCCCCCCC(=O)O | inactive |
| CCC(=C(c1ccc(O)cc1)c1ccc(OCCN(C)C)cc1)c1ccccc1 | active |
| CCCCCCCCCCCCCC[N+](C)(C)C | active |

Request: Kindly provide the recorded test outcome for the following molecule: CC(C)CCCCCCOC(=O)CCCCC(=O)OCCCCCCC(C)C
Result: inactive

Request: Dear colleague, could you share the recorded outcome for CC[C@H](C)[C@@H](C(=O)O)n1sc2ccccc2c1=O when you have a moment?
Result: inactive

Request: Hi, do you know how c1ccc2c(c1)ccc1ccccc12 came out in this test?
Result: inactive

Request: I'd appreciate the recorded outcome for C#C[C@]1(O)CC[C@H]2[C@@H]3CCC4=CC(=O)CC[C@@H]4[C@H]3CC[C@@]21C from this test.
Result: active

Request: Returns: the outcome recorded for CC(C)(C)c1cc(C(C)(C)C)c(O)c(C(C)(C)C)c1 in this assay.
Result: inactive

Request: Any idea what this test logged for CCCCOCCO ?
Result: inactive

Request: Recorded test call requested for Cc1oc(-c2ccccc2)nc1CCOc1ccc(C[C@H](Nc2ccccc2C(=O)c2ccccc2)C(=O)O)cc1
Result: active

* * *

Read-out: NAD(P)H dehydrogenase [quinone] 1 (NQO1), NQO1 (gene 1728)
Assay: LTEA_HepaRG_NQO1: Life Technologies and Expression Analysis (LTEA) Assay for NAD(P)H dehydrogenase [quinone] 1 (NQO1) using HepaRG (AID 2283526)
Conditions: mRNA level, 48 h; actives raise or lower the signal
Active and inactive are the calls of the source. The calls were made as follows: active = hit-call score of the fitted dose curve at least 0.9, where 1 is the maximum; inactive = score below 0.9.
Metric Name: AC50

Reference set, count: 10
| Molecule | Metric Name | Val |
| --- | --- | --- |
| O=C(O)c1ccccc1C(c1ccc(O)cc1)c1ccc(O)cc1 | AC50 | inactive |
| Cc1oc(-c2ccccc2)nc1CCOc1ccc(C[C@H](Nc2ccccc2C(=O)c2ccccc2)C(=O)O)cc1 | AC50 | 29.6 µM (active) |
| Nc1cccc2c(N)cccc12 | AC50 | inactive |
| CC(C)(C)c1cccc(C(C)(C)C)c1O | AC50 | inactive |
| COCC(C)OCC(C)O (centres undefined) | AC50 | inactive |
| Cc1cc(C)c(O)c(C)c1 | AC50 | inactive |
| O=c1c(-c2ccc(O)cc2)coc2cc(O)ccc12 | AC50 | inactive |
| O=C(O)Cc1cc(I)c(Oc2cc(I)c(O)c(I)c2)c(I)c1 | AC50 | 33.5 µM (active) |
| CC(C)(C)CC(C)(C)c1ccc(O)c(-n2nc3ccccc3n2)c1 | AC50 | inactive |
| OC1CCC(C2CCCCC2)CC1 (centres undefined) | AC50 | inactive |

// sample CCCCCCCC(=O)O , its AC50 was inactive

Item: CC[C@H](c1ccc(O)cc1)[C@@H](CC)c1ccc(O)cc1 | AC50: 81.8 µM (active)

AC50 recorded for this molecule, CCCCC(CC)COC(=O)CCCCC(=O)OCc1ccccc1 (centres undefined) , is inactive

Reported AC50 for CC(=O)CC(C)(C)O was inactive

Looking up COc1ccc([N+](=O)[O-])cc1N , I see its AC50 listed as inactive

# molecule c1ccc2cc3c(ccc4ccccc43)cc2c1 ; its AC50 = inactive

The molecule listed as CCCCCCC(=O)O has a reported AC50 of inactive

Looking up CC[C@H](C)[C@@H](C(=O)O)n1sc2ccccc2c1=O , I see its AC50 listed as inactive

So for CCC(=C(c1ccc(O)cc1)c1ccc(OCCN(C)C)cc1)c1ccccc1 , the logged AC50 turned out to be inactive

* * *

Read-out: CFLAR gene, CFLAR (gene 8837)
Experiment: LTEA_HepaRG_CFLAR: Life Technologies and Expression Analysis (LTEA) Assay for CFLAR gene using HepaRG (AID 2283455)
Details: mRNA level, 48 h; actives raise or lower the signal
Calls of active or inactive are those of the source. Rule for the calls: active = hit-call score of the fitted dose curve at least 0.9, where 1 is the maximum; inactive = score below 0.9.
Give your call using only these classes: 1.0 (active), 0.0 (inactive)

| Molecule | Group |
| --- | --- |
| O=C(O)c1ccccc1C(c1ccc(O)cc1)c1ccc(O)cc1 | 0.0 |

Request: Write down the call the test reported for this molecule. Item: CCN(CC)CCNc1ccc(CNC=O)c2sc3ccc(OC)cc3c(=O)c12
Result: 1.0

* * *

Read-out: Insulin-like growth factor-binding protein 1 (IGFBP1), IGFBP1 (gene 3484)
Assay: LTEA_HepaRG_IGFBP1: Life Technologies and Expression Analysis (LTEA) Assay for Insulin-like growth factor-binding protein 1 (IGFBP1) using HepaRG (AID 2283508)
Details: mRNA level, 48 h; actives raise or lower the signal
Activity calls are given as the source filed them. The calls were made as follows: active = hit-call score of the fitted dose curve at least 0.9, where 1 is the maximum; inactive = score below 0.9.
Give one outcome, nothing more. List: active, inactive

Previously resolved entries follow.
| Molecule | Group |
| --- | --- |
| CCc1nn(C2CCCCC2)c2cc(C3(C#N)CCC(C(=O)O)CC3)ccc12 (configuration not stated) | active |
| ClC1=C(Cl)C(Cl)(Cl)C(Cl)=C1Cl | inactive |
| OC1CCCCC1 | inactive |
| CCCCCCCC(=O)O | inactive |
| CC(=O)NC1(c2cccc(F)c2)CCN(CC[C@@]2(c3ccc(Cl)c(Cl)c3)CN(c3ccccc3)C(=O)CO2)CC1 | active |

Request: Which outcome was assigned to COCC(C)OCC(C)O (configuration not stated) in this test?
Result: inactive

Request: Record lookup: outcome of this test for CCC(C)(C)C1CCC(O)CC1 (configuration not stated) ?
Result: inactive

Request: Record request — test call for NC(=O)N1C(=O)C(C(=O)c2cc(Cl)cs2)c2cc(F)c(Cl)cc21 (configuration not stated)
Result: active

Request: Write down the call the test reported for this molecule. Item: CCCCCCCCC(=O)O
Result: inactive

Request: I would be grateful if you could indicate the recorded call for CCc1ccc(CCOc2ccc(CC3SC(=O)NC3=O)cc2)nc1 (configuration not stated) .
Result: active

Request: I would be grateful if you could indicate the recorded call for COCC(C)O (configuration not stated) .
Result: inactive

Request: Please indicate how the test categorized CC1=C(/C=C/C(C)=C/C=C/C(C)=C/C(=O)O)C(C)(C)CCC1 .
Result: inactive

Request: // param item: CN1CCC[C@H]1c1cccnc1 ; yields the recorded call
Result: inactive

* * *

Read-out: Paternally Expressed 10 (PEG10), PEG10 (gene 23089)
Assay: LTEA_HepaRG_PEG10: Life Technologies and Expression Analysis (LTEA) Assay for Paternally Expressed 10 (PEG10) using HepaRG (AID 2283520)
Settings: mRNA level, 48 h; actives raise or lower the signal
Calls of active or inactive are those of the source. Rule for the calls: active = hit-call score of the fitted dose curve at least 0.9, where 1 is the maximum; inactive = score below 0.9.
Thanks in advance; please answer with one of these: t for active, f for inactive

| Compound | Group |
| --- | --- |
| COCC(C)O (stereo not drawn) | f |
| CN(C)C=O | f |
| NC(=O)N1C(=O)C(C(=O)c2cc(Cl)cs2)c2cc(F)c(Cl)cc21 (stereo not drawn) | t |
| c1ccc2cc3c(ccc4ccccc43)cc2c1 | t |
| OC1CCCCC1 | f |
| O=[N+]([O-])c1ccc(O)cc1 | f |
| NC(=O)N(O)[C@@H]1C=C[C@H](Oc2cccc(Oc3ccc(F)cc3)c2)C1 | t |

Shifting focus to the compound that follows.
Request: Hi, sorry to bother you, what did the test record for CC#C[C@]1(O)CC[C@H]2[C@@H]3CCC4=CC(=O)CCC4=C3[C@@H](c3ccc(N(C)C)cc3)C[C@@]21C ?
Result: f

Origin of the recorded values: PubChem BioAssay (EPA / NIEHS)
